FYI, the data here is from the supplement of paper PMC4466140.

subject-of-test: AgSla1-D3
assay-notes: SPOT peptide array binding signal intensity (averaged, normalized) (arbitrary units (background-subtracted, floor 0; scale differs between SH3 domains)); higher = stronger binding of the SH3 domain to the peptide
Classify by measured SPOT peptide array binding signal intensity: yes (1) if it is equal to or exceeds 5, no (0) if it is smaller.

KMSRSPPRPPSLKII	yes (1)
IAPIPMPKPNPTHIS	no (0)
KKEKKPPKIPKKVYT	no (0)

Answer whether SPOT peptide array binding signal intensity of RSRRSSFAYPQQVAI is greater than or equal to 5.
no (0)

Answer whether SPOT peptide array binding signal intensity of GKFIPSRPAPKPPSS is greater than or equal to 5.
yes (1)
